B1: TPR t1 (parent)
chain: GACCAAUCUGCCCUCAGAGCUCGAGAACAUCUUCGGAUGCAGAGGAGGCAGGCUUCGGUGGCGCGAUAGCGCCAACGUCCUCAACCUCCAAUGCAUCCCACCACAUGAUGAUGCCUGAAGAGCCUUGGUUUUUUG

Variants of: B1
Assay: polymerase ribozyme fitness, log enrichment relative to wild type (log ratio); higher = more active; in vitro selection for triplet polymerase activity
Short version: polymerase ribozyme fitness (log ratio) at least -4 is T, less is F.

# Alteration, Category
records = [
    ("G35A G61C", "F"),
]

Answer whether polymerase ribozyme fitness (log ratio) of C62A C114A is greater than or equal to -4.
T

Answer whether polymerase ribozyme fitness (log ratio) of U59C C123G is greater than or equal to -4.
T

Answer whether polymerase ribozyme fitness (log ratio) of C56A C115U is greater than or equal to -4.
T

Answer whether polymerase ribozyme fitness (log ratio) of A18C A43G C114U U129C is greater than or equal to -4.
T

Answer whether polymerase ribozyme fitness (log ratio) of A43U C72U is greater than or equal to -4.
T

Answer whether polymerase ribozyme fitness (log ratio) of A43U C73U is greater than or equal to -4.
T

Answer whether polymerase ribozyme fitness (log ratio) of A46G C97U U130G is greater than or equal to -4.
T

Answer whether polymerase ribozyme fitness (log ratio) of C11U A50U C88U is greater than or equal to -4.
T
